System: Tetranychus urticae
Test: Acaricidal activity against Tetranychus urticae (two-spotted spider mite) in compound treated kidney bean leaf assessed as mortality of egg at 24 degC measured after 1 week
Format: functional
Details: 168 h
LC50 listing for selected compounds.
Only the number, expressed in nM, is required.

Sample records with LC50:
- CCCCCc1ccc(C2COC(c3c(F)cccc3F)=N2)c(OCC)c1 (centres undefined): 1.35
- CC(C)c1ccc(C2COC(c3c(F)cccc3F)=N2)cc1 (centres undefined): 16.6
- Fc1cccc(C2COC(c3c(F)cccc3F)=N2)c1 (centres undefined): 18200
- Fc1ccc(C2COC(c3c(F)cccc3F)=N2)c(F)c1 (centres undefined): 170
- Cc1ccc(C2COC(c3c(F)cccc3F)=N2)cc1 (centres undefined): 1820
- CCCCCCc1ccc(C2COC(c3c(F)cccc3F)=N2)cc1Cl (centres undefined): 1320

Look up and state reported LC50 for Oc1ccc(C2COC(c3c(F)cccc3F)=N2)cc1 (centres undefined)
182000

Provide measured LC50 value, entry: Fc1cccc(F)c1C1=NC(c2ccccc2)CO1 (centres undefined)
19500

Cited source: ChEMBL document CHEMBL3046571
